Numbers sourced from ChEMBL document CHEMBL1136615.

Exercise: for every item that follows, state its recorded log10 Ki.
Scale: decimal log of Ki, Ki in nM.

Q: Provide UniProt:P00918 log10 Ki reading for CCOC(=O)c1ccc(NS(N)(=O)=O)cc1 .
Ans: 1.28

Q: Provide UniProt:P00918 log10 Ki reading for NS(=O)(=O)N(Cc1ccccc1)Cc1ccccc1 .
Ans: 2.81

Q: Provide UniProt:P00918 log10 Ki reading for CN(C)c1ccc(NS(N)(=O)=O)cc1 .
Ans: 1.32

Q: Provide UniProt:P00918 log10 Ki reading for NS(=O)(=O)Nc1ccc(I)cc1 .
Ans: 1.23

Q: Provide UniProt:P00918 log10 Ki reading for NS(=O)(=O)Nc1cccc(C(=O)c2ccccc2)c1 .
Ans: 1.69

Q: Provide UniProt:P00918 log10 Ki reading for NS(=O)(=O)N1CCCCCC1 .
Ans: 2.12

Q: Provide UniProt:P00918 log10 Ki reading for NS(=O)(=O)NC1CCCCC1 .
Ans: 2.65

Q: Provide UniProt:P00918 log10 Ki reading for NS(=O)(=O)NC1C2CC3CC(C2)CC1C3 (stereo unspecified) .
Ans: 2.95

Q: Provide UniProt:P00918 log10 Ki reading for NS(=O)(=O)NCc1ccccc1 .
Ans: 2.09
